assay: saturation vapor pressure; type: physicochemical
measuredProperty: Saturation vapor pressure (hPa)
Just the number please, in hPa, no unit attached.

Worked set:
[[record]]
molecule = "COCC(C)O (centres unmarked)"
testresult = 8.71

[[record]]
molecule = "CCCOC(C)COC(C)CO (centres unmarked)"
testresult = 0.03

[[record]]
molecule = "CCOCC(C)O (centres unmarked)"
testresult = 9.4

[[record]]
molecule = "COCC(C)OC(C)=O (centres unmarked) [PGMEA, propylene glycol methyl ether acetate]"
testresult = 5


Could you now consider this next molecule?
What does the data say about its Saturation vapor pressure? Entry: CCCOCC(C)O (centres unmarked)
2.21
